- target-under-test: human macrophage elastase (HME/hMMP-12) (Homo sapiens, UniProt P39900)
- Sequence (P39900 106-470): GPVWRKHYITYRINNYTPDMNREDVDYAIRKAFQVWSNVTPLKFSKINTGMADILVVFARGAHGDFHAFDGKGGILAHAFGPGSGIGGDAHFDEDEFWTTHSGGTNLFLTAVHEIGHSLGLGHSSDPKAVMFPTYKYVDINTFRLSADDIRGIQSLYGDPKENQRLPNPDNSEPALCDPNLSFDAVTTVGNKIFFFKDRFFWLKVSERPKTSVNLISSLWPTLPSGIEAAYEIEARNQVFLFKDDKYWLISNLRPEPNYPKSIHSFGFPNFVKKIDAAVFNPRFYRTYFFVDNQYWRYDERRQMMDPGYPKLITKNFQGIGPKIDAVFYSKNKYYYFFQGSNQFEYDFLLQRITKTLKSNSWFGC
- assay: In vitro HME inhibition test (standard or high-sensitivity)
- cond: in some cases mean values, rounded to two significant figures
quantity-measured: pIC50
Answers are plain numbers, as −log10 of the molar value.

Example cases with answers are listed next.
compound="O=C(CC(CCn1nnc2ccccc2c1=O)C(=O)O)c1noc2cc(OCCC3CCCCC3)ccc12 (single isomer, unassigned; enantiomer 2) [Example 143]" test_value=10.72
compound="COc1cccc(C(=O)COc2ccc3cc(C(=O)CC(CCn4nnc5ccccc5c4=O)C(=O)O)sc3c2)c1 (racemic)" test_value=9.02
compound="NC(=O)c1cccc(COc2ccc3c(C(=O)CC(CCn4nnc5ccccc5c4=O)C(=O)O)noc3c2)c1 (racemic)" test_value=9.24
compound="CCCCCOc1ccc2c(C(=O)CC(CCn3nnc4ccccc4c3=O)C(=O)O)coc2c1 (single isomer, unassigned) [Example 91]" test_value=9.64
compound="O=C(CC(CCn1nnc2ccccc2c1=O)C(=O)O)c1noc2cc(OCc3ccc(F)cc3)ccc12 (single isomer, unassigned; enantiomer 1) [Example 137]" test_value=7.46

Incoming: For human macrophage elastase (HME/hMMP-12) (Homo sapiens, UniProt P39900), give pIC50 of the listed compound: CCCCCCCOc1ccc2oc(C(=O)CC(CCn3nnc4ccccc4c3=O)C(=O)O)cc2c1 (racemic)
Outgoing: 8.32

====

- target-under-test: human macrophage elastase (HME/hMMP-12) (Homo sapiens, UniProt P39900)
- assay: In vitro HME inhibition test (standard or high-sensitivity)
- cond: in some cases mean values, rounded to two significant figures
pIC50: −log10 of the molar value.
Label Y for high-side pIC50 (at or above 9) and N for low-side pIC50 (below it).

compound="O=C(CC(CCn1nnc2ccccc2c1=O)C(=O)O)c1cc2ccc(OCC3CC3)cc2s1 (single isomer, unassigned; (+)) [Example 112]" category=N
compound="O=C(CC(CCn1nnc2ccccc2c1=O)C(=O)O)c1cc2cc(OCc3ccccc3F)ccc2o1 (racemic)" category=N
compound="O=C(CC(CCn1nnc2ccccc2c1=O)C(=O)O)c1coc2cc(OCc3ccccc3)ccc12 (single isomer, unassigned; (+)) [Example 85]" category=Y
compound="CCCCCCOc1ccc2c(C(=O)CC(CCn3nnc4ccccc4c3=O)C(=O)O)coc2c1 (racemic) [Example 98]" category=Y

Incoming: Is pIC50 at least 9? Consider O=C(CC(CCn1nnc2ccccc2c1=O)C(=O)O)c1noc2cc(OCc3ccc(F)cc3)ccc12 (single isomer, unassigned; enantiomer 2) [Example 138]
Outgoing: Y

====

- target-under-test: human macrophage elastase (HME/hMMP-12) (Homo sapiens, UniProt P39900)
- Construct: purchased R&D Systems 917-MP
- assay: In vitro HME inhibition test (standard or high-sensitivity)
- Type: biochemical
- cond: in some cases mean values, rounded to two significant figures
Exercise: for every item that follows, state its recorded pIC50.
Give bare numbers, as −log10 of the molar value.

Example cases with answers are listed next.
molecule="O=C(CC(CCn1nnc2ccccc2c1=O)C(=O)O)c1coc2cc(OCC3CCCC3)ccc12 (racemic) [Example 78]" test_value=8.70
molecule="O=C(CC(CCn1nnc2ccccc2c1=O)C(=O)O)c1cc2cc(OCc3ccc(C(F)(F)F)cc3)ccc2o1 (racemic) [Example 44]" test_value=9.21
molecule="O=C(CC(CCn1nnc2ccccc2c1=O)C(=O)O)c1noc2cc(OCc3ccccc3)ccc12 (racemic) [Example 145]" test_value=9.15
molecule="O=C(CC(CCn1nnc2ccccc2c1=O)C(=O)O)c1cc2cc(OCCCC(F)(F)F)ccc2o1 (single isomer, unassigned; enantiomer 1) [Example 12]" test_value=6.05
molecule="O=C(CC(CCn1nnc2ccccc2c1=O)C(=O)O)c1noc2cc(OCC3CCCC3)ccc12 (racemic) [Example 152]" test_value=8.85

Moving on to the next molecule.
Incoming: Retrieve pIC50 measured for O=C(CC(CCn1nnc2ccccc2c1=O)C(=O)O)c1cc2ccc(OCC3CC3)cc2s1 (single isomer, unassigned; (-)) [Example 113] and print it.
Outgoing: 5.37
